# Target or test system: human PCSK9 / human LDLR EGFa domain interaction (Homo sapiens (Human))
# Sequence (Q8NBP7 153-692): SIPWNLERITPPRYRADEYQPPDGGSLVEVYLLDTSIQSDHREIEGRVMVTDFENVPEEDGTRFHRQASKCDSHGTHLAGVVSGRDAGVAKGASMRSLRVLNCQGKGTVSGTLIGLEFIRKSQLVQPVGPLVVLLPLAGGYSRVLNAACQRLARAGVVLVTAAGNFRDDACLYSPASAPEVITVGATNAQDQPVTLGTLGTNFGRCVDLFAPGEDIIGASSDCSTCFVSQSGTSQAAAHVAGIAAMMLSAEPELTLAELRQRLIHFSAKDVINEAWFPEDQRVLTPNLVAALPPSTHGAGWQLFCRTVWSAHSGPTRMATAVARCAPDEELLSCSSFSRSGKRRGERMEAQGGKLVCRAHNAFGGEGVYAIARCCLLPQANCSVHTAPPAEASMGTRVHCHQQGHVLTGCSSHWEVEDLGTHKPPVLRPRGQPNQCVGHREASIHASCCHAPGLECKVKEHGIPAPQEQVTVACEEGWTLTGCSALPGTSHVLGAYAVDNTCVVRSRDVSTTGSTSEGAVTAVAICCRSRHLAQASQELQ
# Sequence (Q8NBP7 31-152 partner): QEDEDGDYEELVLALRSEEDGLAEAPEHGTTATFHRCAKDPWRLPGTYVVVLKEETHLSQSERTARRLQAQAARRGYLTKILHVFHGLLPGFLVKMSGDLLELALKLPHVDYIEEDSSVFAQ
# Protocol notes: TR-FRET assay of inhibition of the PCSK9-LDLR protein-protein interaction
# Type: binding
# Condition info: TR-FRET, 20 nM human PCSK9, 20 nM human LDLR EGFa domain, 2 hours room temperature; read-out: IC50
pIC50: −log10 of the molar value. Starred links: 1 amine or outer side, 2 acyl side, 3 side chain; linkers in the order of their positions; H or OH if unused. Positions of bridges follow the written chain, without caps; N, C: chain ends. Non-standard residues stand in square brackets, D forms with d. Residues, ends and D or L forms follow the SMILES beside them. Trp(5-F) = N[C@@H](Cc1c[nH]c2ccc(F)cc12)C(=O)O; Phe(4-CH2NH2) = NCc1ccc(C[C@H](N)C(=O)O)cc1; Pro(cis-4-F) = O=C(O)[C@@H]1C[C@H](F)CN1; mXylylene = c1cc(C[*:1])cc(C[*:2])c1; αMeP = C[C@@]1(C(=O)O)CCCN1; dDap = NC[C@@H](N)C(=O)O; Mpa = O=C(O)CCS
Below, each of the compounds is paired with its reported pIC50 value.

compound="C[C@@]12CCCN1C(=O)[C@H](Cc1ccc(O)cc1)NC(=O)[C@H](Cc1cnc[nH]1)NC(=O)[C@H](CC(=O)O)NC(=O)[C@H](Cc1c[nH]c3ccc(F)cc13)NC(=O)[C@H](Cc1c[nH]c3ccc(F)cc13)NC(=O)CNC(=O)[C@@H](CN)NC(=O)CCSCc1cccc(c1)CSC[C@@H](C(N)=O)NC2=O [Compound 354] ([Mpa][dDap]G[Trp(5-F)][Trp(5-F)]DHY[αMeP]C-NH2; linker 1-10 via mXylylene)" recorded_metric=pIC50 result="4.30 to 4.68"

Now let's try a different one.
Returns the measured pIC50 for the input compound. Input: COc1ccc(C[C@@H]2NC(=O)[C@H]([C@@H](C)O)NC(=O)[C@@H]3C[C@H](F)CN3C(=O)[C@H](Cc3c[nH]c4ccc(F)cc34)NC(=O)[C@H](Cc3c[nH]c4ccc(F)cc34)NC(=O)[C@@H](C)NC(=O)[C@H](CCCCN)NC(=O)[C@@H](NC(C)=O)CC(=O)NCc3ccc(cc3)C[C@@H](C(N)=O)NC(=O)[C@]3(C)CCCN3C2=O)cc1 [Compound 066] (Ac-DK[dA][Trp(5-F)][Trp(5-F)][Pro(cis-4-F)]TY(Me)[αMeP][Phe(4-CH2NH2)]-NH2; lactam 1-10)
7.00 to 10.00
